- Test system: U-251
- PROCEDURE DETAILS: Growth inhibition of human U251 cells at 10 uM after 48 hrs by sulforhodamine B assay
- Type: functional
- CONDITION: U-251, 48 h, values are per cent of control
growth, % of control at 10 µM class ranges: L = under 40%, M = from 40% up to 90%, H = 90% and over

SMILES REPR	LABEL CLASS
COc1ccc(/C=C(\C#N)c2ccc3c(c2)OCO3)cc1OC	H
COc1ccc(/C=C(\C#N)c2ccc3c(c2)OCO3)cn1	M
COc1ccc(/C=C(\C#N)c2ccc3c(c2)OCO3)c(OC)c1	L
N#C/C(=C\c1cc2ccccc2s1)c1ccc2c(c1)OCO2	L
N#C/C(=C\c1ccc2ccccc2n1)c1ccc2c(c1)OCO2	L
COc1cc(/C=C(\C#N)c2ccc3c(c2)OCO3)cc(OC)c1	H
COc1ccc(/C(C#N)=C/c2ccc3c(c2)OCCO3)cc1OC	L
COc1ccc(/C=C(\C#N)c2ccc3c(c2)OCO3)c2ccccc12	L
COc1ccc(/C(C#N)=C/c2ccc3c(c2)OCCO3)cc1	L
N#C/C(=C\c1cccnc1Cl)c1ccc2c(c1)OCO2	H
COc1cc(/C=C(\C#N)c2ccc3c(c2)OCO3)cc(OC)c1OC	H
N#C/C(=C\c1ccc(Cl)c(Cl)c1)c1ccc2c(c1)OCO2	M
N#C/C(=C\c1ccc2c(c1)OCO2)c1ccc2c(c1)OCO2	M
N#C/C(=C\c1ccsc1)c1ccc2c(c1)OCO2	H
N#C/C(=C\c1cccc2ccccc12)c1ccc2c(c1)OCO2	M

----------
- PROCEDURE DETAILS: Growth inhibition of human UACC62 cells at 10 uM after 48 hrs by sulforhodamine B assay
- Format: functional
- CONDITION: UACC-62, 48 h, values are per cent of control

SMILES REPR	UNIT ABBREV	growth, % of control at 10 µM
N#C/C(=C\c1ccc(Cl)c(Cl)c1)c1ccc2c(c1)OCO2	%	108
COc1ccc(/C(C#N)=C/c2ccc3c(c2)OCCO3)cc1OC	%	43.7
N#C/C(=C\c1ccc2ccccc2n1)c1ccc2c(c1)OCO2	%	86.8
N#C/C(=C\c1ccc(Cl)cc1Cl)c1ccc2c(c1)OCO2	%	81.9
COc1ccc(/C=C(\C#N)c2ccc3c(c2)OCO3)c(Cl)c1OC	%	56.6
COc1cc(/C=C(\C#N)c2ccc3c(c2)OCO3)cc(OC)c1OC	%	87.6
N#C/C(=C\c1cccc2ccccc12)c1ccc2c(c1)OCO2	%	44.7
N#C/C(=C\c1cc(F)cc(F)c1)c1ccc2c(c1)OCO2	%	106
N#C/C(=C\c1ccsc1)c1ccc2c(c1)OCO2	%	106
N#C/C(=C\c1ccc2c(c1)OCO2)c1ccc2c(c1)OCO2	%	69.4
N#C/C(=C\c1cc2ccccc2s1)c1ccc2c(c1)OCO2	%	24
COc1cc(/C=C(\C#N)c2ccc3c(c2)OCO3)cc(OC)c1	%	86.4

----------
Examples of compounds with documented growth, % of control at 10 µM follow.
- Test system: SK-MEL-28
- PROCEDURE DETAILS: Growth inhibition of human SK-MEL-28 cells at 10 uM after 48 hrs by sulforhodamine B assay
- Format: functional
- CONDITION: SK-MEL-28, 48 h, values are per cent of control
EXPERIMENTAL ENDPOINT: growth, % of control at 10 µM (%)

SMILES REPR	ASSAY VALUE
N#C/C(=C\c1cc(F)cc(F)c1)c1ccc2c(c1)OCO2	115
N#C/C(=C\c1cc2ccccc2s1)c1ccc2c(c1)OCO2	60.6
COc1ccc(/C=C(\C#N)c2ccc3c(c2)OCO3)c(Cl)c1OC	91
COc1ccc(/C=C(\C#N)c2ccc3c(c2)OCO3)c(OC)c1	50.2
COc1cc(/C(C#N)=C/c2ccc3c(c2)OCCO3)cc(OC)c1OC	63
N#C/C(=C\c1ccc2c(c1)OCO2)c1ccc2c(c1)OCO2	88.5
N#C/C(=C\c1cc(Br)cc(Br)c1)c1ccc2c(c1)OCO2	98.9
COc1cc(/C=C(\C#N)c2ccc3c(c2)OCO3)cc(OC)c1	106
N#C/C(=C\c1ccsc1)c1ccc2c(c1)OCO2	113
N#C/C(=C\c1ccc2ccccc2n1)c1ccc2c(c1)OCO2	88.6
N#C/C(=C\c1c(Cl)cccc1Cl)c1ccc2c(c1)OCO2	104
COc1ccc(/C=C(\C#N)c2ccc3c(c2)OCO3)c2ccccc12	43.6
N#C/C(=C\c1ccc(Cl)c(Cl)c1)c1ccc2c(c1)OCO2	105
COc1ccc(/C(C#N)=C/c2ccc3c(c2)OCO3)cc1	81.4
N#C/C(=C\c1cccc2ccccc12)c1ccc2c(c1)OCO2	64.6
COc1ccc(/C=C(\C#N)c2ccc3c(c2)OCO3)cn1	95.1
COc1cc(/C=C(\C#N)c2ccc3c(c2)OCO3)cc(OC)c1OC	97.6
N#C/C(=C\c1ccc(Cl)cc1Cl)c1ccc2c(c1)OCO2	98.3
N#C/C(=C\c1cccnc1Cl)c1ccc2c(c1)OCO2	113
COc1ccc(/C(C#N)=C/c2ccc3c(c2)OCCO3)cc1OC	61.7
COc1ccc(/C=C(\C#N)c2ccc3c(c2)OCO3)cc1OC	116
COc1ccc(/C(C#N)=C/c2ccc3c(c2)OCCO3)cc1	75.3
COc1ccc(/C=C(\C#N)c2ccc3c(c2)OCO3)cc1	40.7

----------
- System: MCF7
- PROCEDURE DETAILS: Growth inhibition of human MCF7 cells at 10 uM after 48 hrs by sulforhodamine B assay
- Assay type: functional
- CONDITION: MCF7, 48 h, values are per cent of control

SMILES REPR	SYSTEM TESTED	growth, % of control at 10 µM (%)
COc1ccc(/C(C#N)=C/c2ccc3c(c2)OCCO3)cc1	MCF7	24.4
N#C/C(=C\c1ccc(Cl)cc1Cl)c1ccc2c(c1)OCO2	MCF7	110
COc1cc(/C(C#N)=C/c2ccc3c(c2)OCCO3)cc(OC)c1OC	MCF7	14.6
COc1cc(/C=C(\C#N)c2ccc3c(c2)OCO3)cc(OC)c1	MCF7	85.5

----------
- PROCEDURE DETAILS: Growth inhibition of human LOXIMVI cells at 10 uM after 48 hrs by sulforhodamine B assay
- Assay type: functional
- CONDITION: LOX IMVI, values are per cent of control
EXPERIMENTAL ENDPOINT: growth, % of control at 10 µM (%)

SMILES REPR	EXPERIMENTAL ENDPOINT	UNIT ABBREV	ASSAY VALUE
COc1ccc(/C(C#N)=C/c2ccc3c(c2)OCCO3)cc1OC	growth, % of control at 10 µM	%	44.9
COc1ccc(/C=C(\C#N)c2ccc3c(c2)OCO3)c(Cl)c1OC	growth, % of control at 10 µM	%	77.3
COc1ccc(/C(C#N)=C/c2ccc3c(c2)OCO3)cc1	growth, % of control at 10 µM	%	102
N#C/C(=C\c1c(Cl)cccc1Cl)c1ccc2c(c1)OCO2	growth, % of control at 10 µM	%	98.9
N#C/C(=C\c1ccc2ccccc2n1)c1ccc2c(c1)OCO2	growth, % of control at 10 µM	%	59.5
N#C/C(=C\c1cc(F)cc(F)c1)c1ccc2c(c1)OCO2	growth, % of control at 10 µM	%	105
N#C/C(=C\c1ccc(Cl)c(Cl)c1)c1ccc2c(c1)OCO2	growth, % of control at 10 µM	%	62.7
N#C/C(=C\c1cc2ccccc2s1)c1ccc2c(c1)OCO2	growth, % of control at 10 µM	%	19.9
N#C/C(=C\c1ccc2c(c1)OCO2)c1ccc2c(c1)OCO2	growth, % of control at 10 µM	%	65.1
N#C/C(=C\c1cc(Br)cc(Br)c1)c1ccc2c(c1)OCO2	growth, % of control at 10 µM	%	97.1
N#C/C(=C\c1cccnc1Cl)c1ccc2c(c1)OCO2	growth, % of control at 10 µM	%	103
COc1cc(/C=C(\C#N)c2ccc3c(c2)OCO3)cc(OC)c1	growth, % of control at 10 µM	%	103
COc1cc(/C=C(\C#N)c2ccc3c(c2)OCO3)cc(OC)c1OC	growth, % of control at 10 µM	%	109
N#C/C(=C\c1ccsc1)c1ccc2c(c1)OCO2	growth, % of control at 10 µM	%	112
COc1ccc(/C=C(\C#N)c2ccc3c(c2)OCO3)cc1	growth, % of control at 10 µM	%	33.3
COc1ccc(/C=C(\C#N)c2ccc3c(c2)OCO3)c2ccccc12	growth, % of control at 10 µM	%	35.2
COc1ccc(/C(C#N)=C/c2ccc3c(c2)OCCO3)cc1	growth, % of control at 10 µM	%	56.7
N#C/C(=C\c1ccc(Cl)cc1Cl)c1ccc2c(c1)OCO2	growth, % of control at 10 µM	%	103
COc1ccc(/C=C(\C#N)c2ccc3c(c2)OCO3)cc1OC	growth, % of control at 10 µM	%	101
COc1cc(/C(C#N)=C/c2ccc3c(c2)OCCO3)cc(OC)c1OC	growth, % of control at 10 µM	%	24.7
N#C/C(=C\c1cccc2ccccc12)c1ccc2c(c1)OCO2	growth, % of control at 10 µM	%	65.2
COc1ccc(/C=C(\C#N)c2ccc3c(c2)OCO3)cn1	growth, % of control at 10 µM	%	95.6
COc1ccc(/C=C(\C#N)c2ccc3c(c2)OCO3)c(OC)c1	growth, % of control at 10 µM	%	41
